Molecular target: Prothrombin (Homo sapiens, UniProt P00734)
result type: Ki (µM)

entry smiles	result type	data value
N=C(N)c1ccc(CNC(=O)[C@@H]2Cc3ccc(cc3)NC(=O)CCN3CCN(CCC(=O)Nc4ccc(cc4)C[C@@H](NS(=O)(=O)Cc4ccccc4)C(=O)N2)CC3)cc1.O=C(O)C(F)(F)F	Ki	26.4

P = C[C@@H]1CN2CC(=O)Nc3ccc(cc3)C[C@@H](C(=O)NCc3ccc(C(=N)N)cc3)NC(=O)[C@H](NS(=O)(=O)Cc3ccccc3)Cc3ccc(cc3)NC(=O)CN1C[C@@H]2C
Q = N=C(N)c1ccc(CNC(=O)[C@@H]2Cc3ccc(cc3)NC(=O)CN3CCN(CC3)CC(=O)Nc3cccc(c3)C[C@@H](NS(=O)(=O)Cc3ccccc3)C(=O)N2)cc1
R = N=C(N)c1ccc(CNC(=O)[C@@H]2Cc3ccc(cc3)NC(=O)CCN3CCN(CCC(=O)Nc4cccc(c4)C[C@@H](NS(=O)(=O)Cc4ccccc4)C(=O)N2)CC3)cc1
S = N=C(N)c1ccc(CNC(=O)[C@@H]2Cc3ccc(cc3)NC(=O)CN3CCN(CC3)CC(=O)NCc3ccc(cc3)C[C@@H](NS(=O)(=O)Cc3ccccc3)C(=O)N2)cc1
T = N=C(N)c1ccc(CNC(=O)[C@@H]2Cc3cccc(c3)NC(=O)CN3CCN(CC3)CC(=O)Nc3ccc(cc3)C[C@@H](NS(=O)(=O)Cc3ccccc3)C(=O)N2)cc1
q: Highest Ki first, then in falling order down to the smallest. Output spec: labels arranged per the requested ranking.
a: P, T, S, Q, R
(P: 12.1 µM, T: 8.02 µM, S: 0.884 µM, Q: 0.604 µM, R: 0.376 µM)

###

Biological target: Serine protease 1 (Homo sapiens, UniProt P07477)
Sequence (P07477 whole entry): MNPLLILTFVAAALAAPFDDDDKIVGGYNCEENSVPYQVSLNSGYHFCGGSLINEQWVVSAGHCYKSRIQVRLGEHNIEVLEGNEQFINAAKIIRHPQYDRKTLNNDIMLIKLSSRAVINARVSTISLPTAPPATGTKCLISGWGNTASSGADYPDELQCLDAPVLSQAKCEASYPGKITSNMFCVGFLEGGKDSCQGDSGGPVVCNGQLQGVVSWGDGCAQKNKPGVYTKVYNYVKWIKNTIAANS
Experiment: Inhibition of human trypsin
Measured Ki values are reported for all entries that follow.
Just the number please, in nM, no unit attached.

entry smiles	test target	Ki / nM
N=C(N)c1ccc(CNC(=O)[C@@H]2Cc3ccc(cc3)NC(=O)CCN3CCN(CCC(=O)Nc4ccc(cc4)C[C@@H](NS(=O)(=O)Cc4ccccc4)C(=O)N2)CC3)cc1.O=C(O)C(F)(F)F	Serine protease 1 (Homo sapiens, UniProt P07477)	8.4

// moving on: another record for Ki
q: Which Ki is listed for `N=C(N)c1ccc(CNC(=O)[C@@H]2Cc3ccc(cc3)NC(=O)CN3CCN(CC3)CC(=O)Nc3ccc(cc3)C[C@@H](NS(=O)(=O)Cc3ccccc3)C(=O)N2)cc1.O=C(O)C(F)(F)F` ?
a: 44

###

Assay: Fraction unbound in human plasma
Format: ADME, cell-free
Measured fraction unbound values are reported for all entries that follow.
Answer with the value's number alone.

entry smiles	result type	data value
N=C(N)c1ccc(CNC(=O)[C@@H]2Cc3ccc(cc3)NC(=O)CCN3CCN(CCC(=O)Nc4ccc(cc4)C[C@@H](NS(=O)(=O)Cc4ccccc4)C(=O)N2)CC3)cc1.O=C(O)C(F)(F)F	fraction unbound	0.67

// moving on: another record for fraction unbound
q: Which fraction unbound is listed for `N=C(N)c1ccc(CNC(=O)[C@@H]2Cc3ccc(cc3)NC(=O)CN3CCN(CC3)CC(=O)Nc3ccc(cc3)C[C@@H](NS(=O)(=O)Cc3ccccc3)C(=O)N2)cc1.O=C(O)C(F)(F)F` ?
a: 0.61

###

Target: Vitamin K-dependent protein C (Homo sapiens)
Sequence (P04070 43-197 limits assumed): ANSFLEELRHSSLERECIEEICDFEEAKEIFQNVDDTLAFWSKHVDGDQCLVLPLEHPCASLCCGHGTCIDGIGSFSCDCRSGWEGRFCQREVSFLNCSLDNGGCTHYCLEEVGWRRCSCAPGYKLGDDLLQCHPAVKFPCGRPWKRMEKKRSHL
Sequence (P04070 212-461 limits assumed): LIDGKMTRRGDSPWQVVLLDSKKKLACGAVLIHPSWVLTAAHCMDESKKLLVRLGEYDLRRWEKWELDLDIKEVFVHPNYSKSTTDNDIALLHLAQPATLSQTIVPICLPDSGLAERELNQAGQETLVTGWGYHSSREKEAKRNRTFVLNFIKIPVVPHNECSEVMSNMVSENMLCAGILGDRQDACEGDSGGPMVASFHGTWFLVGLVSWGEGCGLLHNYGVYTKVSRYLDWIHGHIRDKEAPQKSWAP
Test: Inhibition of human activated protein C using H-D-Lys(Cbz)-Pro-Arg-pNA as substrate after 5 to 10 mins by micro plate reader analysis
pKi: −log10 of the molar value.
result type: pKi

entry smiles	pKi
N=C(N)c1ccc(CNC(=O)[C@@H]2Cc3cccc(c3)NC(=O)CN3CCN(CC3)CC(=O)Nc3ccc(cc3)C[C@@H](NS(=O)(=O)Cc3ccccc3)C(=O)N2)cc1	5.39

I = N=C(N)c1ccc(CNC(=O)[C@@H]2Cc3ccc(cc3)NC(=O)CCN3CCCN(CCC(=O)Nc4ccc(cc4)C[C@@H](NS(=O)(=O)Cc4ccccc4)C(=O)N2)CC3)cc1
II = C[C@H]1CN2CC(=O)Nc3ccc(cc3)C[C@@H](NS(=O)(=O)Cc3ccccc3)C(=O)N[C@H](C(=O)NCc3ccc(C(=N)N)cc3)Cc3ccc(cc3)NC(=O)CN1C[C@@H]2C
III = N=C(N)c1ccc(CNC(=O)[C@@H]2Cc3cccc(c3)NC(=O)CN3CCN(CC3)CC(=O)Nc3cccc(c3)C[C@@H](NS(=O)(=O)Cc3ccccc3)C(=O)N2)cc1
q: Put these in order: smallest pKi first, largest last. Output spec: labels arranged per the requested ranking.
a: I, II, III
(I: 5.11, II: 5.32, III: 7.41)

###

pKi: −log10 of the molar value.
Observed pKi values for Plasminogen (Homo sapiens) are listed in what follows.
result type: pKi

entry smiles	result type	data value
N=C(N)c1ccc(CNC(=O)[C@@H]2Cc3ccc(cc3)NC(=O)CCN3CCN(CCC(=O)Nc4ccc(cc4)C[C@@H](NS(=O)(=O)Cc4ccccc4)C(=O)N2)CC3)cc1.O=C(O)C(F)(F)F	pKi	9.70
C[C@H]1CN2CC(=O)Nc3ccc(cc3)C[C@@H](C(=O)NCc3ccc(C(=N)N)cc3)NC(=O)[C@H](NS(=O)(=O)Cc3ccccc3)Cc3ccc(cc3)CNC(=O)CN1C[C@@H]2C	pKi	8.77

I = N=C(N)c1ccc(CNC(=O)[C@@H]2Cc3cccc(c3)NC(=O)CCN3CCN(CCC(=O)Nc4ccc(cc4)C[C@@H](NS(=O)(=O)Cc4ccccc4)C(=O)N2)CC3)cc1
II = C[C@H]1CN2CC(=O)Nc3ccc(cc3)C[C@@H](NS(=O)(=O)Cc3ccccc3)C(=O)N[C@H](C(=O)NCc3ccc(C(=N)N)cc3)Cc3ccc(cc3)NC(=O)CN1C[C@@H]2C
III = N=C(N)c1ccc(CNC(=O)[C@@H]2Cc3ccc(cc3)NC(=O)CN3CCCN(CC3)CC(=O)NCc3ccc(cc3)C[C@@H](NS(=O)(=O)Cc3ccccc3)C(=O)N2)cc1
q: Highest pKi first, then in falling order down to the smallest. Output spec: labels arranged per the requested ranking.
a: III, II, I
(III: 9.12, II: 8.79, I: 8.29)

###

Observed pKi values for Trypsin (Sus scrofa, UniProt P00761) are listed in what follows.
pKi: −log10 of the molar value.
result type: pKi

Example cases with answers are listed next.
entry smiles	pKi
N=C(N)c1ccc(CNC(=O)[C@@H]2Cc3cccc(c3)NC(=O)CCN3CCN(CCC(=O)Nc4ccc(cc4)C[C@@H](NS(=O)(=O)Cc4ccccc4)C(=O)N2)CC3)cc1	7.60
C[C@H]1CN2CC(=O)Nc3ccc(cc3)C[C@@H](C(=O)NCc3ccc(C(=N)N)cc3)NC(=O)[C@H](NS(=O)(=O)Cc3ccccc3)Cc3ccc(cc3)CNC(=O)CN1C[C@@H]2C	6.90

I = N=C(N)c1ccc(CNC(=O)[C@@H]2Cc3cccc(c3)NC(=O)CN3CCN(CC3)CC(=O)Nc3ccc(cc3)C[C@@H](NS(=O)(=O)Cc3ccccc3)C(=O)N2)cc1
II = C[C@H]1CN2CC(=O)Nc3ccc(cc3)C[C@@H](NS(=O)(=O)Cc3ccccc3)C(=O)N[C@H](C(=O)NCc3ccc(C(=N)N)cc3)Cc3ccc(cc3)NC(=O)CN1C[C@@H]2C
q: Given the listed items, does I or II have the lesser reported pKi? // respond with label for picked entry
a: II

###

Target: Prothrombin (Homo sapiens)
Test: Inhibition of human thrombin using CH3SO2-D-Cha-Gly-Arg-pNA as substrate after 5 to 10 mins by micro plate reader analysis
pKi: −log10 of the molar value.
result type: pKi

Example cases with answers are listed next.
entry smiles	pKi
C[C@H]1CN2CC(=O)Nc3ccc(cc3)C[C@@H](NS(=O)(=O)Cc3ccccc3)C(=O)N[C@H](C(=O)NCc3ccc(C(=N)N)cc3)Cc3ccc(cc3)NC(=O)CN1C[C@@H]2C	5.07
C[C@H]1CN2CC(=O)Nc3ccc(cc3)C[C@@H](C(=O)NCc3ccc(C(=N)N)cc3)NC(=O)[C@H](NS(=O)(=O)Cc3ccccc3)Cc3ccc(cc3)CNC(=O)CN1C[C@@H]2C	5.53
N=C(N)c1ccc(CNC(=O)[C@@H]2Cc3ccc(cc3)NC(=O)CN3CCN(CC3)CC(=O)Nc3ccc(cc3)C[C@@H](NS(=O)(=O)Cc3ccccc3)C(=O)N2)cc1.O=C(O)C(F)(F)F	4.86

P = N=C(N)c1ccc(CNC(=O)[C@@H]2Cc3cccc(c3)NC(=O)CN3CCN(CC3)CC(=O)Nc3cccc(c3)C[C@@H](NS(=O)(=O)Cc3ccccc3)C(=O)N2)cc1
Q = N=C(N)c1ccc(CNC(=O)[C@@H]2Cc3ccc(cc3)NC(=O)CN3CCCN(CC3)CC(=O)NCc3ccc(cc3)C[C@@H](NS(=O)(=O)Cc3ccccc3)C(=O)N2)cc1
q: Given the listed items, does P or Q have the lesser reported pKi? // respond with label for picked entry
a: Q
(Q: 5.23, P: 6.64)
